# test_system: Nav1.7 (or SCN9A) channel (Homo sapiens, UniProt Q15858)
# Construct: expressed in transfected cells
# Sequence (Q15858 whole entry): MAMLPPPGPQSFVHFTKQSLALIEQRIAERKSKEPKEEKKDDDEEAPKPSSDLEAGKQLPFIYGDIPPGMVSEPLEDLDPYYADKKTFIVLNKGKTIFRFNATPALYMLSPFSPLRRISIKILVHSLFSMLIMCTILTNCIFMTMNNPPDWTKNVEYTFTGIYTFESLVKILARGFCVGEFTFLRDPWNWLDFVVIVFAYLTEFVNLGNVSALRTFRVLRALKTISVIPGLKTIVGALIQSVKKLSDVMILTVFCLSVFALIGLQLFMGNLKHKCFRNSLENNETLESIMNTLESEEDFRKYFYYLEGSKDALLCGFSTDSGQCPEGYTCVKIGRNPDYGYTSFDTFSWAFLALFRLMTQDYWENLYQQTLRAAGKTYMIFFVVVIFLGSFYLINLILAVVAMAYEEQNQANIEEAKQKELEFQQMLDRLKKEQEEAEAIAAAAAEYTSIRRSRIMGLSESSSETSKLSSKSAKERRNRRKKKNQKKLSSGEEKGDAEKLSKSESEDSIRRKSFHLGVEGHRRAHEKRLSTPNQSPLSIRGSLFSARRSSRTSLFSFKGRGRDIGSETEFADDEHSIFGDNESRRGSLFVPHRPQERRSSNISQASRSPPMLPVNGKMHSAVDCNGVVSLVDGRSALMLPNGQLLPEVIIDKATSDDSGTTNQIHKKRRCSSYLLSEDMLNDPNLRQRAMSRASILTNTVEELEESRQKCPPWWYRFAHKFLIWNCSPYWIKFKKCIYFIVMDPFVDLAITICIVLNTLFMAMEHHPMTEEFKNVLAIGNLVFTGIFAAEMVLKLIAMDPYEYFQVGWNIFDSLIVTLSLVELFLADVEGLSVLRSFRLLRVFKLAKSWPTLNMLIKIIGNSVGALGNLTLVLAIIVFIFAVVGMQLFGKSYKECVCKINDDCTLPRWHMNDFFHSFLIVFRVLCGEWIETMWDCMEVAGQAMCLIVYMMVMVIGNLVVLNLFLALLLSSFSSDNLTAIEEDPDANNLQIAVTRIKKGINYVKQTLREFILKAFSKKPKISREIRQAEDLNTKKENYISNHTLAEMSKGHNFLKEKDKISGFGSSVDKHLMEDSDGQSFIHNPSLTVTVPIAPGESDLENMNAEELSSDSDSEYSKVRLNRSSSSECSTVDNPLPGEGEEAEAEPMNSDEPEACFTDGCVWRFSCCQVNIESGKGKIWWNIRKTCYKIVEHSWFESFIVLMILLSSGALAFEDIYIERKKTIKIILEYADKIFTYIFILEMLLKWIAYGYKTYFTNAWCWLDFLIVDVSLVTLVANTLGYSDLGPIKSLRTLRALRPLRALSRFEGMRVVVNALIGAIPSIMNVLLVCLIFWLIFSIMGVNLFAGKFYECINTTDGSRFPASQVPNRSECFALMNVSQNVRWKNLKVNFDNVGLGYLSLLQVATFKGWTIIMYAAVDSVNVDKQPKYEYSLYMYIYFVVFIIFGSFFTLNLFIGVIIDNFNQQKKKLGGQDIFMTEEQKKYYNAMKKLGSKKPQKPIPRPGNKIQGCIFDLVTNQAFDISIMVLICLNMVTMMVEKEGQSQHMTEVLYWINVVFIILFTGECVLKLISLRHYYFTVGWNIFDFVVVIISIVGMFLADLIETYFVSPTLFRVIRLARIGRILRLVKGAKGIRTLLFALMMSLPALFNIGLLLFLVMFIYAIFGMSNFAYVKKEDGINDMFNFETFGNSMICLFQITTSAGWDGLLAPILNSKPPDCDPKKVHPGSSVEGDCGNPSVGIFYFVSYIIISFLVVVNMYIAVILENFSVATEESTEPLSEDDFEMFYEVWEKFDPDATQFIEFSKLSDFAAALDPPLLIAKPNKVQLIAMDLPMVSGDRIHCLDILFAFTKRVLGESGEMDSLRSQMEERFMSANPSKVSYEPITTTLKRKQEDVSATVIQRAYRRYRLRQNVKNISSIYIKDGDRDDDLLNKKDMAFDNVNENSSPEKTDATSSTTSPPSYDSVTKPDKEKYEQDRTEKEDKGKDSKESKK
# method_description: Nav1.7 (hSCN9A) block in HEK cells, PatchXpress 7000 automated electrophysiology, estimated IC50 (EIC50)
# Assay type: cell-based
# condition_notes: PatchXpress assay; HEK cells stably transfected with hSCN9A, voltage-clamped at V1/2 of inactivation
# note: boundary value 70 nM maps to f; IC50 below it maps to t

CC(C)CN(C)c1ncc(Oc2cc(F)c(C(=O)NS(C)(=O)=O)cc2F)cc1Cl: f
[2H]C([2H])([2H])C([2H])(Oc1ncc(Oc2cc(F)c(C(=O)NS(C)(=O)=O)cc2Cl)cc1Cl)C([2H])([2H])[2H] (single isomer, unassigned): t
COc1ncc(Oc2ccc(C(=O)NS(C)(=O)=O)cc2Cl)cc1Cl: f
CC1CCN(c2ncc(Oc3cc(F)c(C(=O)NS(C)(=O)=O)cc3F)cc2Cl)CC1: f

**Query** # strict comparison: is reported IC50 < 70 nM? input = CC(C)Oc1ncc(Oc2cc(F)c(C(=O)NS(C)(=O)=O)cc2Cl)cc1Cl
**Result** t
